Test system: L929 cells
Experiment summary: TNF-induced programmed necrosis of L929 cells (Cell Titer-Glo viability)
Format: cell-based, mouse
Test context: Mus musculus, L929; stimulation with TNFα + SM164; read-out: EC50 (nM) L929 cells (mouse-derived) TNFα+ SM164
Can you tell me EC50 for the items I'm about to list?
Numbers only, in nM.

> print(dat)
                                   compound  numeric.result
1  C[C@H](NC(=O)c1cnn(C)c1Cc1cc(F)cc(F)c1)c1ccc(C#Cc2ccccn2)cc1 [IRCBC-033]            4.11
2  C[C@H](NC(=O)c1nnn(C)c1Cc1ccccc1)c1ccc(C#Cc2cnn(C)c2)cc1 [QY-18-43]            0.08
3  Cn1nnc(C(=O)NCc2ccc(C#Cc3ccccn3)nc2)c1Cc1ccccc1 [IRCBC-057]            35.5

Report EC50, nothing else, for this compound: CC(=O)Nc1ccc(C#Cc2ccc([C@H](C)NC(=O)c3nnn(C)c3Cc3ccccc3)cc2)nc1 [IRCBC-149]
0.066

---

Tested on: L929 cells
Experiment summary: TNF-induced programmed necrosis of L929 cells (Cell Titer-Glo viability)
Assay type: cell-based, mouse
Test context: Mus musculus, L929; stimulation with TNFα + SM164; read-out: EC50 (nM) L929 cells (mouse-derived) TNFα+ SM164
Description: The biological test protocol is adopted to test effects of the compound on TNF-induced programmed necrosis of FADD (Fas-associated death domain)-deficient Jurkat cells and L929 cells. […] Method: FADD-deficient Jurkat cells: FADD-deficient Jurkat cells (human peripheral blood leukemia T cell line) were cultured in vitro. […] Luminescence was measured to assess intracellular ATP levels. […] EC50 values of the compounds were calculated using Prism GraphPad statistical software.
Can you tell me EC50 for the items I'm about to list?

// known answers, use as guide
> print(dat)
                                   compound  observable    result
1  [2H]C([2H])([2H])Nc1ccc(C#Cc2ccc([C@H](C)NC(=O)c3nnn(C)c3Cc3ccccc3)cc2)nc1 [IRCBC-150]        EC50  0.001 nM
2  C[C@H](NC(=O)c1nnn(C)c1Cc1ccccc1F)c1ccc(C#Cc2ccccn2)cc1 [IRCBC-067]        EC50  0.887 nM
3  COc1cnc(C#Cc2ccc([C@H](C)NC(=O)c3nnn(C)c3Cc3ccccc3)cc2)nc1 [IRCBC-095]        EC50  0.052 nM
4  C[C@H](NC(=O)c1nnn(C)c1Cc1ccccc1)c1ccc(C#Cc2cccc(N(C)C)n2)cc1 [IRCBC-099]        EC50  0.734 nM
5  C[C@H](NC(=O)c1nnn(C)c1Cc1ccccc1)c1ccc(C#CC2CCOC2)cc1 (some centres unmarked) [IRCBC-010]        EC50   6.71 nM

Could you report EC50 for every entry in the following list?
1. C[C@H](NC(=O)c1nnn(C)c1Cc1ccccc1)c1ccc(C#Cc2ccc(N3CCC3)cn2)cc1 [IRCBC-103]
2. C[C@H](NC(=O)c1nnn(C)c1Cc1ccccc1)c1ccc(C#Cc2ccc(N3CCOCC3)cn2)cc1 [IRCBC-105]
3. C[C@H](NC(=O)c1nnn(C)c1Cc1ccccc1)c1ccc(C#Cc2ncc3nc[nH]c3n2)cc1 [IRCBC-129]

0.104 nM
0.004 nM
0.196 nM

---

System: L929 cells
Experiment summary: TNF-induced programmed necrosis of L929 cells (Cell Titer-Glo viability)
Type: cell-based, mouse
Test context: Mus musculus, L929; stimulation with TNFα + SM164; read-out: EC50 (nM) L929 cells (mouse-derived) TNFα+ SM164
Can you tell me EC50 for the items I'm about to list?
One number for each entry, in nM.

// known answers, use as guide
> print(dat)
                           substance.smiles  numeric.result
1  C[C@H](NC(=O)c1nnn(C)c1Cc1ccccc1)c1ccc(C#Cc2ncc(N)cn2)cc1           0.002
2  C[C@H](NC(=O)c1nnn(C)c1Cc1ccccc1)c1ccc(C#Cc2c(F)cncc2F)cc1            1.29
3  C[C@H](NC(=O)c1nnn(C)c1Cc1cccc(F)c1)c1ccc(C#Cc2ccccn2)cc1             0.3

Next item in the queue.
Report EC50, nothing else, for this compound: C[C@H](NC(=O)c1nnn(C)c1Cc1ccccc1)c1ccc(C#Cc2csc(N(C)C)n2)cc1
0.3

---

System: L929 cells
Experiment summary: TNF-induced programmed necrosis of L929 cells (Cell Titer-Glo viability)
Format: cell-based, mouse
Test context: Mus musculus, L929, read-out: EC50 (nM) L929 cells (mouse-derived) TNFα
Observable: EC50

> print(dat)
                           substance.smiles  target.desc  observable    result
1  C[C@H](NC(=O)c1nnn(C)c1Cc1ccccc1)c1ccc(C#Cc2ccc(Cl)cn2)cc1   L929 cells        EC50  0.105 nM

Could you report EC50 for every entry in the following list?
1. C[C@H](NC(=O)c1nnn(C)c1Cc1ccccc1)c1ccc(C#Cc2ccncc2F)cc1
2. C[C@H](NC(=O)c1nnn(C)c1Cc1ccccc1)c1ccc(C#Cc2ncc[nH]2)cc1
3. C[C@H](NC(=O)c1nnn(C)c1Cc1ccccc1)c1ccc(C#Cc2nccn2C)cc1

1: 0.103 nM; 2: 81.9 nM; 3: 55.7 nM

---

Test system: L929 cells
Experiment summary: TNF-induced programmed necrosis of L929 cells (Cell Titer-Glo viability)
Assay type: cell-based, mouse
Test context: Mus musculus, L929; stimulation with TNFα + SM164; read-out: EC50 (nM) L929 cells (mouse-derived) TNFα+ SM164
Observable: EC50 (nM)
Give bare numbers, in nM.

> print(dat)
                           substance.smiles  target.desc  numeric.result
1  C[C@H](NC(=O)c1cnn(C)c1Cc1ccccc1)c1ccc(C#Cc2ccccn2)cc1   L929 cells             0.5

Could you report EC50 for every entry in the following list?
1. C[C@H](NC(=O)c1nnn(C)c1Cc1ccccc1)c1ccc(C#Cc2cnc3cccnn23)cc1
2. Cn1nnc(C(=O)NCc2ccc(C#Cc3ccccn3)cc2F)c1Cc1ccccc1
3. C[C@H](NC(=O)c1nnn(C)c1Cc1ccccc1)c1ccc(C#Cc2cnc(N(C)C)nc2)cc1
4. C[C@H](NC(=O)c1nnn(C)c1Cc1ccccc1)c1ccc(C#Cc2ccc(C#N)cn2)cc1
5. CC(C)Nc1ccc(C#Cc2ccc([C@H](C)NC(=O)c3nnn(C)c3Cc3ccccc3)cc2)nc1
6. C[C@H](NC(=O)c1nnn(C)c1Cc1ccccc1)c1ccc(C#Cc2ccncc2)cc1

1: 8.75; 2: 14.8; 3: 70.9; 4: 4.53; 5: 0.0014; 6: 0.06

Could you report EC50 for every entry in the following list?
1. C[C@H](NC(=O)c1nnn(C)c1Cc1ccccc1)c1ccc(C#Cc2ccc(N3CCCC3)cn2)cc1
2. CNc1cnc(C#Cc2ccc([C@H](C)NC(=O)c3nnn(C)c3Cc3ccccc3)cc2)nc1
3. [2H]C([2H])([2H])Nc1cnc(C#Cc2ccc([C@H](C)NC(=O)c3nnn(C)c3Cc3ccccc3)cc2)nc1
4. C[C@H](NC(=O)c1nnn(C)c1Cc1ccc(F)cc1)c1ccc(C#Cc2ccccn2)cc1
5. C[C@H](NC(=O)c1nnn(C)c1Cc1ccccc1)c1ccc(C#Cc2cnc[nH]2)cc1
6. C[C@H](NC(=O)c1nnn(C)c1Cc1ccccc1)c1ccc(C#Cc2cc(N(C)C)ccn2)cc1
7. CNc1cnc(C#Cc2ccc([C@H](C)NC(=O)c3nnn(C)c3Cc3ccccc3)cc2)cn1
8. C[C@H](NC(=O)c1nnn(C)c1Cc1ccc(C#N)cc1)c1ccc(C#Cc2ccccn2)cc1

[0.12, 0.00234, 0.00121, 0.1, 3.42, 1.68, 0.127, 2.99]

---

Can you tell me EC50 for the items I'm about to list?
Tested on: L929 cells
Experiment summary: TNF-induced programmed necrosis of L929 cells (Cell Titer-Glo viability)
Assay type: cell-based, mouse
Test context: Mus musculus, L929, read-out: EC50 (nM) L929 cells (mouse-derived) TNFα
Give bare numbers, in nM.

// known answers, use as guide
> print(dat)
                                   compound  numeric.result
1  COC(C)(C)C#Cc1ccc([C@H](C)NC(=O)c2nnn(C)c2Cc2ccccc2)cc1            13.1
2  C[C@H](NC(=O)c1nnn(C)c1Cc1ccccc1)c1ccc(C#Cc2nccs2)cc1           0.631
3  CN1C(=O)N[C@H](Cc2c[nH]c3c(Cl)cccc23)C1=O [Nec-1s, reference compound]             443
4  C[C@H](NC(=O)c1nnn(C)c1Cc1ccccc1)c1ccc(C#Cc2ncco2)cc1            1.86
5  C[C@H](NC(=O)c1nnn(C)c1Cc1ccccc1)c1ccc(C#Cc2cnn(C3CC3)c2)cc1           0.771

Could you report EC50 for every entry in the following list?
1. C[C@H](NC(=O)c1nnn(C)c1Cc1ccccc1)c1ccc(C#Cc2ccc(F)cn2)cc1
2. C[C@H](NC(=O)c1nnn(C)c1Cc1ccccc1)c1ccc(C#Cc2ccn(C)n2)cc1
3. C[C@H](NC(=O)c1nnn(C)c1Cc1cccc(Cl)c1)c1ccc(C#Cc2ccccn2)cc1
4. COc1ccc(C#Cc2ccc([C@H](C)NC(=O)c3nnn(C)c3Cc3ccccc3)cc2)nc1
5. C[C@H](NC(=O)c1nnn(C)c1Cc1ccccc1)c1ccc(C#Cc2ccnn2C)cc1
6. C[C@H](NC(=O)c1nnn(C)c1Cc1ccccc1)c1ccc(C#Cc2cnccn2)cc1
7. C[C@H](NC(=O)c1nnn(C)c1Cc1ccccc1)c1ccc(C#Cc2ccncc2Cl)cc1

[0.118, 0.558, 5.85, 0.068, 1.11, 2.93, 0.374]
